target-of-assay: recombinant eIF4E (Homo sapiens (Human))
Sequence (P06730 whole entry): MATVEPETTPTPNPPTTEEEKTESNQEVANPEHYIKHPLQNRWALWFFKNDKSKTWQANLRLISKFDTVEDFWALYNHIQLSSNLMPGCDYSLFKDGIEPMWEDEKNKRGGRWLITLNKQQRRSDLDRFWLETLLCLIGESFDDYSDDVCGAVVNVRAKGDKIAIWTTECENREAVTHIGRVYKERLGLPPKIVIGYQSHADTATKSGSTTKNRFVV
test-name: Fluorescence polarization competition assay for eIF4E binding potency
measurement-setup: inhibition of eIF4E/EDA-m7GDP-ATTO-550 binding by 50%; Table 4B calculated values; read-out: IC50
Description: Compounds were screened for eIF4E binding potency using a fluorescence polarization competition assay. All binding reactions were performed in fluorescence polarization buffer (FPB) containing 20 mM Tris pH 7.5, 100 mM NaCl, 1 mM DTT, and 0.02% Tween-20. Final binding reactions contained 75 nM recombinant eIF4E (Beryllium, custom order), 20 nM EDA-m^7GDP-ATTO-550 (Jena Bioscience, NU-827-550) and varying concentrations of the inhibitory compound of interest. […]
recorded-endpoint: pIC50
Entry type: numeric. Quantity: pIC50, the -log10 of concentration in molar units.

Study these solved cases before continuing.
smiles | pIC50
Cc1cc(-c2cc(Cl)ccc2OCCn2c(C)nc3cnc(N4CC(OC(F)(F)F)C4)c(C#N)c3c2=O)c2scc(C(=O)O)c2n1 | 7.58
CCc1cc(-c2cc(Cl)ccc2OCCn2c(C)nc3cc(C(F)(F)F)c(-c4cc(F)cnc4C)c(C#N)c3c2=O)c2scc(C(=O)O)c2n1 | 8.08
Cc1nc2c(C(F)(F)F)ccc(C#N)c2c(=O)n1CCOc1ccc(Cl)cc1-c1ccnc2c(C(=O)O)csc12 | 7.06
N#Cc1cc2c(=O)n(CCOc3ccc(Cl)cc3-c3cc4c(c(C(=O)O)c3)OCC4)cnc2cn1 | 6.23
Cc1nc2c(F)c(F)c(C(F)F)c(C#N)c2c(=O)n1CCOc1ccc(Cl)cc1-c1ccnc2c(C(=O)O)csc12 | 7.00

Inquiry: Find the measured pIC50: item "COc1cc(C#N)c2c(=O)n(CCOc3ccc(Cl)cc3-c3ccnc4c(C(=O)O)csc34)c(C)nc2c1" , target or system recombinant eIF4E (Homo sapiens (Human)).
Reply text: 7.71

Inquiry: Find the measured pIC50: item "CCCCc1nc2c(=O)n(CCOc3ccc(Cl)cc3-c3cc(C)nc4c(C(=O)O)csc34)c(C)nc2cc1C(F)(F)F" , target or system recombinant eIF4E (Homo sapiens (Human)).
Reply text: 8.45

Inquiry: Find the measured pIC50: item "Cc1nc2ccccc2c(=O)n1CCOc1ccc(Cl)cc1-c1cccc(C(=O)O)c1" , target or system recombinant eIF4E (Homo sapiens (Human)).
Reply text: 5.51

Inquiry: Find the measured pIC50: item "Cc1nc2cc(C(F)(F)F)cc(C#N)c2c(=O)n1CCOc1ccc(Cl)cc1-c1cccc(C(=O)O)c1" , target or system recombinant eIF4E (Homo sapiens (Human)).
Reply text: 7.67

Inquiry: Find the measured pIC50: item "Cc1cc(-c2cc(Cl)ccc2OCCn2c(C)nc3cc(Cl)c(O)c(C#N)c3c2=O)c2scc(C(=O)O)c2n1" , target or system recombinant eIF4E (Homo sapiens (Human)).
Reply text: 8.98

Inquiry: Find the measured pIC50: item "N#Cc1cc2c(=O)n(CCOc3ccc(Cl)cc3-c3ccc(OC(F)(F)F)c(C(=O)O)c3)cnc2cn1" , target or system recombinant eIF4E (Homo sapiens (Human)).
Reply text: 6.09

Inquiry: Find the measured pIC50: item "Cc1cc(-c2cc(Cl)ccc2OCCn2c(C)nc3cc(C(F)(F)F)c(N4CCSCC4)c(C#N)c3c2=O)c2scc(C(=O)O)c2n1" , target or system recombinant eIF4E (Homo sapiens (Human)).
Reply text: 7.25

Inquiry: Find the measured pIC50: item "Cc1cc(-c2cc(Cl)ccc2OCCn2c(C)nc3cc(Cl)c(N(C)C4CC4)c(C#N)c3c2=O)c2scc(C(=O)O)c2n1" , target or system recombinant eIF4E (Homo sapiens (Human)).
Reply text: 8.24

Inquiry: Find the measured pIC50: item "Cc1nc2cc(C(F)(F)F)cc(C#N)c2c(=O)n1CCOc1ccc(Cl)cc1-c1ccnc2c(C(=O)O)coc12" , target or system recombinant eIF4E (Homo sapiens (Human)).
Reply text: 7.28

Inquiry: Find the measured pIC50: item "Cc1ccc(-c2cc(Cl)ccc2OCCn2c(C)nc3c(C#N)nc(-c4ccccn4)c(C)c3c2=O)c2scc(C(=O)O)c12" , target or system recombinant eIF4E (Homo sapiens (Human)).
Reply text: 6.73

Inquiry: Find the measured pIC50: item "N#Cc1cc2c(=O)n(CCOc3ccc(Cl)cc3-c3ccnc4c(C(=O)O)csc34)cnc2cn1" , target or system recombinant eIF4E (Homo sapiens (Human)).
Reply text: 6.79

Inquiry: Find the measured pIC50: item "Cc1sc2c(-c3cc(Cl)ccc3OCCn3c(C)nc4cc(C(F)(F)F)c(C)c(C#N)c4c3=O)cn(C)c(=O)c2c1C(=O)O" , target or system recombinant eIF4E (Homo sapiens (Human)).
Reply text: 8.13

Inquiry: Find the measured pIC50: item "Cc1nc2c(C(F)(F)F)ccc(C#N)c2c(=O)n1CCOc1ccc(Cl)cc1-c1cccc(C(=O)O)c1" , target or system recombinant eIF4E (Homo sapiens (Human)).
Reply text: 6.82

Inquiry: Find the measured pIC50: item "Cc1nc2c(F)cc(C(F)F)c(C#N)c2c(=O)n1CCOc1ccc(Cl)cc1-c1ccnc2c(-c3nnn[nH]3)csc12" , target or system recombinant eIF4E (Homo sapiens (Human)).
Reply text: 7.11

Inquiry: Find the measured pIC50: item "Cc1cc(-c2cc(Cl)ccc2OCCn2c(C)nc3cc(Cl)c(NC4CC4)c(C#N)c3c2=O)c2scc(C(=O)O)c2n1" , target or system recombinant eIF4E (Homo sapiens (Human)).
Reply text: 7.87

Inquiry: Find the measured pIC50: item "Cc1cc(-c2cc(Cl)ccc2OCCn2c(C)nc3cc(C(F)(F)F)c(-c4nn(C)cc4C)c(C#N)c3c2=O)c2scc(C(=O)O)c2n1" , target or system recombinant eIF4E (Homo sapiens (Human)).
Reply text: 7.50

Inquiry: Find the measured pIC50: item "Cc1cc(-c2cc(Cl)ccc2OCCn2c(C)nc3c(F)cc(C(F)F)c(C#N)c3c2=O)c2scc(C(=O)NS(=O)(=O)C(F)(F)F)c2n1" , target or system recombinant eIF4E (Homo sapiens (Human)).
Reply text: 7.48

Inquiry: Find the measured pIC50: item "N#Cc1cc(C(F)F)cc2ncn(CCOc3ccc(Cl)cc3-c3cccc(C(=O)O)c3)c(=O)c12" , target or system recombinant eIF4E (Homo sapiens (Human)).
Reply text: 7.46

Inquiry: Find the measured pIC50: item "Cc1nc2cc(C(F)(F)F)cc(C#N)c2c(=O)n1CCOc1ccc(Cl)cc1-c1ccnc2c(CC(=O)O)csc12" , target or system recombinant eIF4E (Homo sapiens (Human)).
Reply text: 7.32

Inquiry: Find the measured pIC50: item "Cc1nc2cc(CN(C)C)c(C(F)(F)F)c(C#N)c2c(=O)n1CC#Cc1ccc(Cl)cc1-c1ccnc2c(C(=O)O)csc12" , target or system recombinant eIF4E (Homo sapiens (Human)).
Reply text: 8.32

Inquiry: Find the measured pIC50: item "Cc1cc(-c2cc(Cl)ccc2OCCn2c(C)nc3cnc(C#N)cc3c2=O)c2scc(C(=O)NS(C)(=O)=O)c2n1" , target or system recombinant eIF4E (Homo sapiens (Human)).
Reply text: 7.24

Inquiry: Find the measured pIC50: item "Cc1nc2cnc(N3CC4(C3)CN(C(C)(C)C(F)F)C4)c(C#N)c2c(=O)n1CCOc1ccc(Cl)cc1-c1ccnc2c(C(=O)O)csc12" , target or system recombinant eIF4E (Homo sapiens (Human)).
Reply text: 7.94
